Test system: Saccharomyces cerevisiae
experiment notes: protein stability index of tFT-peptide fusion in wild type (PSI (0-1 scale)); higher = more stable (slower turnover)
applied conditions: genetic background: wild type
Could you please report measured protein stability index for the items listed next?
Keep it simple and answer with nothing but the number.

So what does the record say about protein stability index for `LKILVQKMNHQN` ? 0.218

So what does the record say about protein stability index for `RLIQPLPCQFLN` ? 0.0496

So what does the record say about protein stability index for `TVTRLDAIYFRI` ? 0.364

So what does the record say about protein stability index for `CSLAASFWRVVG` ? 0.125

So what does the record say about protein stability index for `CTHCGYKFRTNN` ? 0.264

So what does the record say about protein stability index for `RVTRLDAPYFRI` ? 0.676

So what does the record say about protein stability index for `PSLAASFIRVVG` ? 0.46

So what does the record say about protein stability index for `AITLPMCCLLLR` ? 0.139

So what does the record say about protein stability index for `KKHPKGQKQKIN` ? 0.14

So what does the record say about protein stability index for `FSMRWTFREWVN` ? 0.0594

So what does the record say about protein stability index for `CTSCGYKFRTTN` ? 0.191

So what does the record say about protein stability index for `LKIGRQKMNHQN` ? 0.414

So what does the record say about protein stability index for `SLYMCSVGCWFR` ? 0.387

So what does the record say about protein stability index for `CTSCGYKFRTNNF` ? 0.711

So what does the record say about protein stability index for `CTSCGYKFRTNS` ? 0.465

So what does the record say about protein stability index for `ARWRVWLWRGAS` ? 0.341

So what does the record say about protein stability index for `AITLPMCPLLGR` ? 0.603

So what does the record say about protein stability index for `RVTRLDAIYFRIL` ? 0.0595

So what does the record say about protein stability index for `ARWRVGLGRGAS` ? 0.456

So what does the record say about protein stability index for `LVVYLSCVAYIN` ? 0.0128

So what does the record say about protein stability index for `VRGRVGGWRLVG` ? 0.121

So what does the record say about protein stability index for `GLYMCSVGPWFR` ? 0.656

So what does the record say about protein stability index for `PYLAASFWRVVG` ? 0.151

So what does the record say about protein stability index for `AITLPMCPLDLR` ? 0.676

So what does the record say about protein stability index for `RLIQPLCVQFLN` ? 0.0777

So what does the record say about protein stability index for `FSMRWTNRYWVN` ? 0.0731

So what does the record say about protein stability index for `VRGAVFGWRLVG` ? 0.149

So what does the record say about protein stability index for `YRGAVGGWRLVG` ? 0.218

So what does the record say about protein stability index for `PDKRNHLITLLN` ? 0.315

So what does the record say about protein stability index for `ARWRVGLWSGAS` ? 0.67

So what does the record say about protein stability index for `ARWRVALWRGAS` ? 0.254

So what does the record say about protein stability index for `PDKRNVLIKLLN` ? 0.125

So what does the record say about protein stability index for `LVVYLSCVACCN` ? 0.0106

So what does the record say about protein stability index for `VRGAGGGWRLVG` ? 0.209

So what does the record say about protein stability index for `GLEMCSVGCWFR` ? 0.241

So what does the record say about protein stability index for `PSLAASFWRVLG` ? 0.164

So what does the record say about protein stability index for `VRGAVGFWRLVG` ? 0.16

So what does the record say about protein stability index for `PDKRNHKIKLLN` ? 0.086

So what does the record say about protein stability index for `RVTRLDAIYTRI` ? 0.688

So what does the record say about protein stability index for `CLVSLPILLFFRR` ? 0.0999

So what does the record say about protein stability index for `LKILRHKMNHQN` ? 0.194

====

Could you please report measured protein stability index for the items listed next?
Tested on: Saccharomyces cerevisiae
experiment notes: protein stability index of tFT-peptide fusion (C-terminal peptide) (PSI (0-1 scale)); higher = more stable (slower turnover)
applied conditions: genetic background: wild type; temperature: 30 C
Keep it simple and answer with nothing but the number.

So what does the record say about protein stability index for VMLLFIFLIMKL [PEP12 C-terminal 12 aa] ? 0.198

So what does the record say about protein stability index for STERAKELLESN [MRF1 C-terminal 12 aa] ? 0.69

So what does the record say about protein stability index for NFGVSSSFSFKP [PEX3 C-terminal 12 aa] ? 0.715

So what does the record say about protein stability index for YGNWSKTVADLN [BAT1 C-terminal 12 aa] ? 0.687

So what does the record say about protein stability index for FAQNTNKDVELN [NGG1 C-terminal 12 aa] ? 0.666

So what does the record say about protein stability index for PSAYVLFYERIF [UBP5 C-terminal 12 aa] ? 0.678

So what does the record say about protein stability index for YKTEYPEWALRR [PUS9 C-terminal 12 aa] ? 0.717

So what does the record say about protein stability index for DSQHKHDYSHSG [DCK1 C-terminal 12 aa] ? 0.715

So what does the record say about protein stability index for AKLSEGTSFRRK [RPS27A C-terminal 12 aa] ? 0.681

So what does the record say about protein stability index for EYGGYGEYGNGS [RTG1 C-terminal 12 aa] ? 0.674

So what does the record say about protein stability index for LSLIYSPHLYMS [YJL136W-A C-terminal 12 aa] ? 0.101

So what does the record say about protein stability index for RMIEYLEEYQAW [FRE4 C-terminal 12 aa] ? 0.72

====

Test system: Saccharomyces cerevisiae
experiment notes: protein stability index of tFT-peptide fusion (C-terminal peptide) (PSI (0-1 scale)); higher = more stable (slower turnover)
applied conditions: genetic background: wild type; temperature: 30 C
Could you please report measured protein stability index for the items listed next?
Keep it simple and answer with nothing but the number.

So what does the record say about protein stability index for `RLPCPLRSRALS` ? 0.626

So what does the record say about protein stability index for `WVAFTRGGCGHC` ? 0.66

So what does the record say about protein stability index for `PTTTPHPHIATP` ? 0.711

So what does the record say about protein stability index for `TPSYSPPSRHDP` ? 0.634

So what does the record say about protein stability index for `ILFCVRIGLFWT` ? 0.219

So what does the record say about protein stability index for `PLRSLPRPLSST` ? 0.659

So what does the record say about protein stability index for `SWGLGWIARRRT` ? 0.684

So what does the record say about protein stability index for `RCSPPVFDTGES` ? 0.652

So what does the record say about protein stability index for `PSPPLPPLPPSP` ? 0.575

So what does the record say about protein stability index for `FRGATRPHSGRS` ? 0.676

So what does the record say about protein stability index for `KVAILAIPKCWT` ? 0.644

So what does the record say about protein stability index for `KWSETGQDGIER` ? 0.701

So what does the record say about protein stability index for `VGPRGFYSFVGG` ? 0.665

So what does the record say about protein stability index for `AGSYERFSRGHR` ? 0.688

So what does the record say about protein stability index for `PHLPPSLFPSPP` ? 0.659

So what does the record say about protein stability index for `PDLLHLPAHRHA` ? 0.672

So what does the record say about protein stability index for `IYSTRWRRGRVE` ? 0.699

So what does the record say about protein stability index for `AGGAEAVRRAGG` ? 0.675

So what does the record say about protein stability index for `GCIGGMAPWGGL` ? 0.664

So what does the record say about protein stability index for `PPPPSTRPSYSP` ? 0.756

So what does the record say about protein stability index for `KSKQKNKTQVKN` ? 0.66

So what does the record say about protein stability index for `SPTALPPPPVPP` ? 0.662

So what does the record say about protein stability index for `GRTENKKPSIKL` ? 0.711

So what does the record say about protein stability index for `FRIFGFLVCPIM` ? 0.626

So what does the record say about protein stability index for `ASGLVVDYTLIA` ? 0.671

So what does the record say about protein stability index for `YRVFTANYEYEQ` ? 0.724

So what does the record say about protein stability index for `PVPLRPLSPPPP` ? 0.68

So what does the record say about protein stability index for `RGGARGRQGCGG` ? 0.765

So what does the record say about protein stability index for `GDMVRVSYRGRR` ? 0.674

So what does the record say about protein stability index for `VGFRMAMVVGGL` ? 0.519

So what does the record say about protein stability index for `SLVPFSPPRSPP` ? 0.689

So what does the record say about protein stability index for `CRGSGGRVVLVG` ? 0.674

So what does the record say about protein stability index for `CVFFCVLVCFLS` ? 0.369

So what does the record say about protein stability index for `RHQTDIVTATQK` ? 0.562

So what does the record say about protein stability index for `ALPPPLPPPAGP` ? 0.699

So what does the record say about protein stability index for `SSMCYARIIWWG` ? 0.596

So what does the record say about protein stability index for `GTGRGRAGARCK` ? 0.679

So what does the record say about protein stability index for `KMVTRKKNEEKD` ? 0.633

So what does the record say about protein stability index for `SCYHGDYCTVAW` ? 0.706

So what does the record say about protein stability index for `SYQPQLDSKRVG` ? 0.63

So what does the record say about protein stability index for `LLFISPPPRCLL` ? 0.75

Hey, just so you know, these numbers are from the supplement of paper PMC10724198.
